Measured IC50, listed per entry for reference.
TARGET_UNDER_TEST: Muscarinic acetylcholine receptor M1 (Mus musculus, UniProt P12657)
Sequence (P12657 whole entry): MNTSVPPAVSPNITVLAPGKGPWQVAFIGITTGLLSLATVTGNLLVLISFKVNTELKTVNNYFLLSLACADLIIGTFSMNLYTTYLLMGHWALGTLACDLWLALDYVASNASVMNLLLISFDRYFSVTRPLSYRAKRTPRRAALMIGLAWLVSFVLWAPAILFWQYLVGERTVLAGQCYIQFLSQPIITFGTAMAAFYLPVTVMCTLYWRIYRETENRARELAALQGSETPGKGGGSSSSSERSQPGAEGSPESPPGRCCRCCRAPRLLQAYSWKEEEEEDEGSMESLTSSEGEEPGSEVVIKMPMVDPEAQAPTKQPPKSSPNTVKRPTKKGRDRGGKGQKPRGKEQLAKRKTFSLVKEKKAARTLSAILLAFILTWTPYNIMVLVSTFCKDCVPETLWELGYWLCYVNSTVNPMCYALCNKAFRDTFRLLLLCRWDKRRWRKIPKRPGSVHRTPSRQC
PROTOCOL_DESCRIPTION: biochemical
Description: Compound was evaluated for the competitive inhibition of [3H]pirenzepine binding to muscarinic acetylcholine receptor M1 of mouse cerebral cortex
Write it as a number; the unit nM goes unstated.

# example entries with known answers
CN(C)Cc1ccc(CSCCN/C=C(/NCCSCc2ccc(CN(C)C)o2)[N+](=O)[O-])o1    900
CN(C)Cc1ccc(CSCCCCCCCCCSCc2ccc(CN(C)C)o2)o1    560
CN(C)Cc1ccc(CSCCCCCCCSCc2ccc(CN(C)C)o2)o1    410
CN(C)Cc1ccc(CSCCNc2cc(NCCSCc3ccc(CN(C)C)o3)c([N+](=O)[O-])cc2[N+](=O)[O-])o1    490
CNC(=O)Oc1ccc2c(c1)[C@]1(C)CCN(C)[C@@H]1N2C    37000

QUERY: Record request: IC50 value, item CN(C)Cc1ccc(CSCCCCCCCCSCc2ccc(CN(C)C)o2)o1
RESULT: 310

====

TARGET_UNDER_TEST: Acetylcholinesterase (Homo sapiens)
pIC50: −log10 of the molar value.
Is pIC50 at least 6? Then condition met. If not, condition not met.

Field: example entries. Status: answers known.
CN(C)Cc1ccc(CSCCCCSCc2ccc(CN(C)C)o2)o1    condition met
CN(C)Cc1ccc(CSCc2ccc(CSCc3ccc(CN(C)C)o3)cc2)o1    condition met
CN(C)Cc1ccc(CSCc2ccccc2CSCc2ccc(CN(C)C)o2)o1    condition not met

QUERY: Reported pIC50 reaches at least 6 for CN(C)Cc1ccc(CSCc2ccc(-c3ccc(CSCc4ccc(CN(C)C)o4)cc3)cc2)o1 ?
RESULT: condition met

QUERY: Request: CN(C)Cc1ccc(CSCCNC(=NC#N)NCCSCc2ccc(CN(C)C)o2)o1
RESULT: condition met

====

TARGET_UNDER_TEST: Acetylcholinesterase (Homo sapiens, UniProt P22303)
Sequence (P22303 whole entry): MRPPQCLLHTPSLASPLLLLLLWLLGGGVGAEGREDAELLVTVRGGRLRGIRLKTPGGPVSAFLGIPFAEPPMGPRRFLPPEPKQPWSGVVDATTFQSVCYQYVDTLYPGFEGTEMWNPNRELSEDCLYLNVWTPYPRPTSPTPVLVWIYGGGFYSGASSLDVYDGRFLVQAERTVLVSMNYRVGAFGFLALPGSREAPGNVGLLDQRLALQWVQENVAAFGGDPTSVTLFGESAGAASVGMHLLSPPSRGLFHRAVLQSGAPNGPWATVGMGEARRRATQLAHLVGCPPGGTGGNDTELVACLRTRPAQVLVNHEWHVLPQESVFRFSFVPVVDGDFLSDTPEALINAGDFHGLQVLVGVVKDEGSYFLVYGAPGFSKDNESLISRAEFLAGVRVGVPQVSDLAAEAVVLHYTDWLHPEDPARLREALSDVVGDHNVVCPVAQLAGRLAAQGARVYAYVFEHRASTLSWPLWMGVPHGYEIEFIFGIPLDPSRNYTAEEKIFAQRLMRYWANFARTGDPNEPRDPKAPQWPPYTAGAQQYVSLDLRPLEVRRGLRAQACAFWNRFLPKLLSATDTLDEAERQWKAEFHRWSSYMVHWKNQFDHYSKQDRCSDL
pIC50: −log10 of the molar value.
Is pIC50 at least 6? Then MET. If not, NOT MET.

Field: example entries. Status: answers known.
CN(C)Cc1ccc(CSCCNC(=O)NCCSCc2ccc(CN(C)C)o2)o1    NOT MET
CN(C)Cc1ccc(CSCc2ccc(CN(C)C)o2)o1    NOT MET
CN(C)Cc1ccc(CSCCCSCc2ccc(CN(C)C)o2)o1    MET
CN(C)Cc1ccc(CSCC/N=C/NCCSCc2ccc(CN(C)C)o2)o1    NOT MET

QUERY: Reported pIC50 reaches at least 6 for CN(C)Cc1ccc(CSCCSCc2ccc(CN(C)C)o2)o1 ?
RESULT: MET

====

TARGET_UNDER_TEST: Acetylcholinesterase (Homo sapiens, UniProt P22303)
Measured IC50, listed per entry for reference.
Output should be the measured figure followed by the unit it is expressed in.

# example entries with known answers
CN(C)Cc1ccc(CSCCCCCCSCc2ccc(CN(C)C)o2)o1    740 nM
CN(C)Cc1ccc(CSCCCCCSCc2ccc(CN(C)C)o2)o1    900 nM

QUERY: Record request: IC50 value, item CN(C)Cc1ccc(CSCc2cccc(CSCc3ccc(CN(C)C)o3)c2)o1
RESULT: 1500 nM
